tested on: SK-MEL-2 melanoma; experiment: NCI-60 one-dose screen, 48 h; details: 10 µM unless noted
The panel holds about 83,000 compounds, 20% with a hit somewhere; the sample as a whole holds those more often. Activity calls are given as the source filed them. Rule for the calls: active = growth percent below 10; inactive = the rest.
The reply should name one outcome from active, inactive

c1cc(OCCN2CCCCC2)ccc1CNc1ccc2nc(CCC3CCCCC3)[nH]c2c1 :: active
CC(C)(Sc1cc(C(C)(C)C)c(O)c(C(C)(C)C)c1)Sc1cc(C(C)(C)C)c(OC(=O)CCC(=O)O)c(C(C)(C)C)c1 :: inactive
C=C(C)[C@@H]1CC[C@]2(CO)CC[C@]3(C)[C@H](CC[C@@H]4[C@@](C)(CCCN)[C@H](C(=C)C)CC[C@]43C)[C@@H]12 :: active
Cn1c2ccccc2c2c3c(c4c5cc(Br)ccc5n(C)c4c21)C(=O)N(O)C3=O :: inactive
COC1C(O)CC(OC2CC(OC3CC(O[C@@H]4C(=O)c5c(cc6cc(OC7CC(OC8CC(O)C(O)C(C)O8)C(O)C(C)O7)c(C)c(O)c6c5O)CC4[C@H](OC)C(=O)C(C)=O)OC(C)C3O)OC(C)C2O)OC1C (some centres not stated) :: active
CN1C(=O)/C(=C/c2ccc(C(=O)Nc3ncc(Cc4cc(Cl)ccc4Cl)s3)cc2)SC1=S :: inactive
N#Cc1c(-c2ccccc2)nc2c(c(-c3ccc(Cl)cc3)nn2-c2ccccc2)c1-c1ccc([N+](=O)[O-])cc1 :: inactive
Cc1cccc(N=Nc2cccc(C)c2)c1 :: inactive
Nc1c(C(=O)Nc2cccc3ncccc23)sc2nc3c(cc12)CN(Cc1ccccc1)CC3 :: inactive
CC(O)Cc1c[nH]c(=O)[nH]c1=O (configuration not stated) :: inactive

Exam item: Answer briefly: the call reported for "CN(C)c1ccc(/C=C2\C=C(c3nc4ccccc4s3)OC2=O)cc1" in this assay.
Marked response: inactive

Exam item: Called result for "CCCCCCCCn1ccc2cc(NC(=O)CN3CCN(c4cc(C)nc(Cl)n4)CC3)ccc21"
Marked response: inactive

====

test system: UACC-257 melanoma; experiment: NCI-60 one-dose screen, 48 h (100 = growth as untreated, 0 = no growth, -100 = all killed); settings: 10 µM unless noted
The panel holds about 83,000 compounds, 20% with a hit somewhere; the sample as a whole holds those more often.
# growth per entry
Give the value in % but do not write % after it.

COc1ccc(NC(=O)c2ccc(Nc3ncnc4c3cnn4-c3cccc(F)c3)cc2)cc1 :: 97.9
c1cc(OCCCCCOc2cccc(-c3nc4ccccc4[nH]3)c2)cc(-c2nc3ccccc3[nH]2)c1 :: 22.9

Could you now consider this next molecule?
Exam item: Using known records, supply growth for "CN(C)CCCNC(=O)c1cncnc1Nc1ccc2c(ccn2Cc2cccc(F)c2)c1"
Marked response: 84.4

====

Listing of entries alongside the reported growth.
system: PC-3 prostate; assay: NCI-60 one-dose screen, 48 h (100 = growth as untreated, 0 = no growth, -100 = all killed); settings: 10 µM unless noted
This is part of a sample that, as a whole, favours compounds with a hit. Of some 83,000 tested, about 20% had one in any assay.
Quick note: give the figure in %, leave out the unit.

Below: 3 compounds and their reported growth.
CCCc1cc(=O)oc2c(C(=O)CC(C)C)c(O)c(CC=C(C)C)c(O)c12 :: 6.87
COc1ccc(C2C3=C(COC3=O)N(CCO)c3cc4c(cc32)OCO4)cc1OC (centres undefined) :: 58.3
Nc1nc(N)c2c(n1)NC(c1cccc(Nc3ccnc4cc(C(F)(F)F)ccc34)c1)CC(c1ccc3c(c1)OCO3)=N2 (centres undefined) :: 48.5

Let us examine a further case.
Exam item: # return recorded growth for entry "Cc1sc2nc(NCCN)[nH]c(=O)c2c1C"
Marked response: 93.3

Source listed as PubChem BioAssay (NCI).
